test system: IGROV1 ovarian; assay: NCI tumour cell line growth inhibition, 48 h
# TGI per entry

Would you please look over these solved cases?
compound	TGI
C(/C=C/c1ccccc1)=Nc1ccc2c(c1)Cc1ccccc1-2	> 100 µM
CC(C)N1CC2CN(Cc3ccccc3)CC(C1)C2=O	> 100 µM
OC(c1cc(-c2cccc(Cl)c2)nc2ccccc12)C1CCCCN1 (centres undefined)	3.21 µM

stdin: For Clc1ccc(Nc2nnc(CCCCCCCCc3nnc(Nc4ccc(Cl)cc4)o3)o2)cc1 , what is its reported TGI?
stdout: > 100 µM

----------
tested on: SK-MEL-28 melanoma; experiment: NCI tumour cell line growth inhibition, 48 h
# TGI per entry

Would you please look over these solved cases?
compound	TGI
CC[C@H]1CN2CCc3cc(OC)c(OC)cc3C2C[C@@H]1CC1NCCc2cc(OC)c(OC)cc21 (stereo partly drawn)	0.119 µM
COc1ccc2sc3cccc(NCCN(C)C)c3c(=O)c2c1	5.3 µM
CC(C)(C)c1cc(-c2cc(C(C)(C)C)[nH]n2)n[nH]1	> 100 µM

stdin: For Nc1c(-c2cn(Cc3ccccc3)c3ccccc23)[n+]([O-])c2ccccc2[n+]1[O-] , what is its reported TGI?
stdout: 91.8 µM

stdin: For CC(C)(C)OC(=O)N[C@H]1CC(O)c2ccccc2N(CC(=O)O)C1=O (stereo partly drawn) , what is its reported TGI?
stdout: > 100 µM

stdin: For C(/C=C/c1ccccc1)=Nc1ccc2c(c1)Cc1ccccc1-2 , what is its reported TGI?
stdout: > 100 µM

stdin: For CC(C)(C)N1CCC1CN (stereo not drawn) , what is its reported TGI?
stdout: > 100 µM

stdin: For O=C(C=C1SCCS1)/C=C\c1ccc(Cl)cc1 , what is its reported TGI?
stdout: > 100 µM

----------
tested on: SW-620 colon; assay: NCI tumour cell line growth inhibition, 48 h
observedProperty: TGI

stdin: For Cc1sc2[nH]c(=O)oc(=O)c2c1C , what is its reported TGI?
stdout: > 100 µM

stdin: For O=C1c2cccnc2S(=O)(=O)N1c1ccc(Oc2ccccc2)cc1 , what is its reported TGI?
stdout: > 100 µM

stdin: For CC(=O)OC1CC2CCN3C(=O)c4cc5c(cc4[C@H](C1OC(C)=O)C23)OCO5 (stereo partly drawn) , what is its reported TGI?
stdout: > 100 µM

stdin: For O=P1(Oc2ccccc2)N=P(c2ccccc2)(c2ccccc2)C=C(c2ccc(Cl)cc2)N1 (stereo not drawn) , what is its reported TGI?
stdout: 29.5 µM

stdin: For COc1cc2nc(Nc3cccc(Br)c3)nc(Nc3cccc(Br)c3)c2cc1OC , what is its reported TGI?
stdout: 45.8 µM

----------
test system: MDA-MB-435; test: NCI tumour cell line growth inhibition, 48 h
# TGI per entry

compound	observedProperty	endpointResult
O=C(/C=C/c1ccco1)c1cc(F)c(Cl)cc1Cl	TGI	> 100 µM
O=c1[nH]nc(Cc2ccc(Cl)cc2)n1/N=C/c1ccco1	TGI	> 100 µM
Cc1c(O)c2ccccc2oc1=O	TGI	> 100 µM

Could you now look at the following compound, please?
stdin: For CC(=O)C1C(=O)C(=O)N(c2ccccc2)C1=O (stereo unspecified) , what is its reported TGI?
stdout: > 100 µM

----------
tested on: MCF7 breast; test: NCI tumour cell line growth inhibition, 48 h
# TGI per entry

molecule	TGI
NC(=O)C(=O)c1ncn(Cc2ccccc2)c1N	> 100 µM

Could you now look at the following molecule, please?
stdin: For CCC(CC)c1nc(Nc2ccc(C(=O)OC)cc2)c2ccccc2n1 , what is its reported TGI?
stdout: > 50 µM

----------
# TGI per entry
test system: NCI/ADR-RES ovarian; assay: NCI tumour cell line growth inhibition, 48 h

compound	TGI
COC1C(CO)OC(n2c3ccccc3c3c4c(c5c6ccccc6[nH]c5c32)C(=O)NC4=O)C(O)C1O (stereo not given)	> 43.7 µM
FC(F)(F)c1ccc(Cc2nc3cc4ccccc4cc3[nH]2)cc1	> 100 µM
CN(C)CCNc1nc2ccccc2c2c1CCCC2	> 100 µM
CC(=O)OCC(OC(C)=O)C(OC(C)=O)C(/C=N\Nc1nc2ccccc2c(=O)[nH]1)=N\Nc1nc2ccccc2c(=O)[nH]1 (stereo not given)	> 100 µM
O=C1C(C(O)(C(F)(F)Cl)C(F)(F)Cl)CCCC1C(O)(C(F)(F)Cl)C(F)(F)Cl (stereo not given)	> 10 µM

stdin: For COc1ccc(/C=C(/C(=O)N2CCN(c3ccccc3)CC2)c2cc(OC)c(OC)c(OC)c2)cc1N , what is its reported TGI?
stdout: > 100 µM

stdin: For Cc1ccc2c(=O)cc(Cc3cccs3)[nH]c2n1 , what is its reported TGI?
stdout: > 100 µM

stdin: For CCOC(=O)c1ccccc1OC(=O)NNc1ccccc1 , what is its reported TGI?
stdout: > 100 µM

stdin: For Nc1c(C(=O)c2ccc(-c3cccnc3)cc2)cnn1-c1ccc(F)cc1 , what is its reported TGI?
stdout: > 25 µM

stdin: For Cc1c(O)c2ccccc2oc1=O , what is its reported TGI?
stdout: > 100 µM

----------
test system: SK-MEL-5 melanoma; assay: NCI tumour cell line growth inhibition, 48 h
# TGI per entry

molecule	endpointResult
Cc1ccc(S(=O)(=O)CN2C(=O)C(c3ccccc3)(c3ccccc3)C23OC(c2ccc(Cl)cc2)=CC3=O)cc1 (stereo not drawn)	> 10 µM
CC(C)(C)n1c(=O)n2n(c1=O)Cc1cccc3cccc(c13)C2	> 100 µM
CC[C@H]1CN2CCc3cc(OC)c(OC)cc3C2C[C@@H]1CC1NCCc2cc(OC)c(OC)cc21 (stereo partly drawn)	0.0928 µM

stdin: For C(/C=C/c1ccccc1)=Nc1ccc2c(c1)Cc1ccccc1-2 , what is its reported TGI?
stdout: > 100 µM

stdin: For COC(=O)[C@@H](C)C[C@H](Cc1cn(C)c2ccccc12)NC(=O)c1csc([C@@H](C[C@H](C(C)C)N(C)C(=O)[C@@H](NC(=O)[C@H]2CCCCN2C)C(C)C)OC(C)=O)n1 , what is its reported TGI?
stdout: 0.252 µM

stdin: For Cc1ccc2c(=O)cc(Cc3cccs3)[nH]c2n1 , what is its reported TGI?
stdout: > 100 µM

stdin: For O=C1C(Cl)N(c2cccc(Cl)c2)C1c1c[nH]c2ccccc12 (stereo not drawn) , what is its reported TGI?
stdout: > 100 µM

stdin: For CO/C=C/C(=O)c1cc2cnc3c(=N)cc(NC(=O)C(C)C)c([nH]1)c23 , what is its reported TGI?
stdout: 0.183 µM

stdin: For NC(=S)N/N=C/c1nccc2ccccc12 , what is its reported TGI?
stdout: > 100 µM

stdin: For CC(=O)N1N=C(c2ccc3ccccc3c2O)CC1c1cccs1 (stereo not drawn) , what is its reported TGI?
stdout: > 100 µM

stdin: For O=C(COc1ccc(/C=C2\COc3ccccc3C2=O)cc1)Nc1nccs1 , what is its reported TGI?
stdout: 26.7 µM

stdin: For C=C1CCCC2[C@](C)(CC3=C(Cl)C(=O)C=C(OC)C3=O)C(C)CC[C@]12C (stereo partly drawn) , what is its reported TGI?
stdout: 12.5 µM

stdin: For C=C(C)[C@@H]1CC[C@]2(COCCC#N)CC[C@]3(C)[C@H](CC[C@@H]4[C@@](C)(CCCNCCC#N)[C@H](C(=C)C)CC[C@]43C)[C@@H]12 , what is its reported TGI?
stdout: > 50 µM

----------
# TGI per entry
test system: MCF7 breast; assay: NCI tumour cell line growth inhibition, 48 h
Entry rule: numbers only, all in µM.

Would you please look over these solved cases?
molecule	outputUnit	TGI
C=C(C)C(=O)O[C@H]1CC2=C[C@@H](C[C@@]3(C)O[C@@H]3[C@H]3OC(=O)C(=C)[C@@H]31)OC2=O	µM	5.42
Cc1cc(=O)[nH]c(N/N=C/c2cc(Br)ccc2O)n1	µM	16.6
C[n+]1c(/C=C/c2c[nH]c3ccccc23)ccc2ccccc21	µM	34.1
Cc1ccc(NC(=O)c2ccc(CN3CCN(C)CC3)cc2)cc1Nc1nccc(-c2cccnc2)n1	µM	44.8
CN(C)CCCC1c2ccccc2Oc2ccc(C(F)(F)F)cc21 (configuration not stated)	µM	26.6
CC(=O)OCC(C)C1=C(OC(C)=O)C(=O)C2(C)C/C=C(/C)CC/C=C(\C)CCC(OC(C)=O)C(C)CCC12 (configuration not stated)	µM	38.2

stdin: For C[C@]12CC[C@@H]3c4cc(OC(F)F)c(O)cc4CC[C@H]3[C@@H]1CC[C@@H]2OS(N)(=O)=O , what is its reported TGI?
stdout: 47.1

stdin: For COc1cc2nc(Nc3cccc(Br)c3)nc(Nc3cccc(Br)c3)c2cc1OC , what is its reported TGI?
stdout: 32.4

----------
test system: NCI-H226 lung; assay: NCI tumour cell line growth inhibition, 48 h
observedProperty: TGI

compound	targetSystem	TGI
COC(=O)C1=Cc2cc(OC)c(OC)c(OC)c2[C@H](c2cc(OC)c(OC)c(OC)c2)C1C(=O)OC (some centres not stated)	NCI-H226 lung	> 100 µM
C=CC(=O)NCCSCCCOC1(C(=O)O)CC(O)C(NC(C)=O)C(C(O)C(O)CO)O1 (configuration not stated)	NCI-H226 lung	> 100 µM
CCOC(=O)C1=C(C)N=c2s/c(=C\c3ccccc3O)c(=O)n2C1c1ccc(OC)c2ccccc12 (configuration not stated)	NCI-H226 lung	32.4 µM
OCc1cc2c(ccc3sc4ccc5sc6ccc7ncccc7c6c5c4c32)s1	NCI-H226 lung	> 100 µM
CCN(CC)C(=O)Cn1c(-c2ccccc2)cc2ccccc21	NCI-H226 lung	> 100 µM

stdin: For CC1(C)N=C(N)N=C(N)N1c1ccc(CCCCc2ccccc2)c(Cl)c1 , what is its reported TGI?
stdout: 24.4 µM

stdin: For CC(=O)OCC(OC(C)=O)C(OC(C)=O)C(/C=N\Nc1nc2ccccc2c(=O)[nH]1)=N\Nc1nc2ccccc2c(=O)[nH]1 (configuration not stated) , what is its reported TGI?
stdout: > 100 µM
